Tested on: A498
Assay: Growth inhibition of human A498 cells after 48 hrs by sulforhodamine B assay
Format: functional
Details: A498, 48 h
Please provide measured GI50 for the entries that follow.

Considering Cc1nn(-c2ccccc2)c2c1C(C)C1CC3(CC4(C)CC3C1(C)c1c(C)nn(-c3ccccc3)c1N4C)N2C (centres undefined) , its GI50 with A498 was recorded as > 100 µM

# C=C1c2c(C)nn(-c3ccc(OC)cc3)c2N(C)C23CC1C1(C)c4c(C)nn(-c5ccc(OC)cc5)c4N(C)C(C)(CC12)C3 (centres undefined) with A498: GI50 is 2.47 µM

Observed GI50, A498, COc1ccc(-n2nc(C)c3c2N(C)C2(C)CC4C3(C)C3CC4(C2)N(C)c2c(c(C)nn2-c2ccc(OC)cc2)C3C)cc1 (centres undefined) : 3.95 µM

Sample C=C1c2c(C)nn(-c3ccccc3)c2N(C)C23CC1C1(C)c4c(C)nn(-c5ccccc5)c4N(C)C(C)(CC12)C3 (centres undefined) , system: A498. Its GI50 is 4.28 µM

* * *

Assay: Therapeutic index, ratio of IC50 for human HeDe cells to IC50 for human HCT116 cells
Type: cell-based, HCT-116
Conditions: HeDe cells versus HCT116 cells, read-out: TI
measurement.label: selectivity ratio
Answer as a number with no unit attached.

Reported selectivity ratio for C=C1c2c(C)nn(-c3ccc(OC)cc3)c2N(C)C23CC1C1(C)c4c(C)nn(-c5ccc(OC)cc5)c4N(C)C(C)(CC12)C3 (stereo unspecified) was 26.9

Entry source: ChEMBL document CHEMBL3102801
